Attribution: patent US9040528B2

Molecular target: Escherichia coli DNA gyrase A/B tetramer (Escherichia coli (strain K12), UniProt P0AES4+P0AES6)
Assay: DNA gyrase supercoiling activity fluorescence polarisation assay
Type: biochemical
Conditions: 5 nM enzyme, relaxed plasmid, 0.3 mM ATP, ambient temperature; read-out: E. coli DNA gyrase supercoiling IC50
metric.name: pIC50
Answers are plain numbers, as −log10 of the molar value.

Below are some compounds; for each one, tell me its pIC50.
1. COCCNC(=O)c1noc2c(F)c3c(cc12)CC1(C(=O)NC(=O)NC1=O)[C@H]1[C@H](C)O[C@H](C)CN31 (relative stereo) [Example 143]
2. C[C@@H]1CN2c3c(cc4c(C(=O)N5CCC(F)(F)CC5)noc4c3F)CC3(C(=O)NC(=O)NC3=O)[C@H]2[C@H](C)O1 (relative stereo) [Example 157]
3. Cc1cc(-c2noc3c(F)c4c(cc23)CC2(C(=O)NC(=O)NC2=O)[C@H]2[C@H](C)O[C@H](C)CN42)no1 (relative stereo) [Example 66]

Reply:
1: 6.00; 2: 5.19; 3: 6.40

Below are some compounds; for each one, tell me its pIC50.
1. C[C@@H]1CN2c3c(cc4c(NCC5CC5)noc4c3F)CC3(C(=O)NC(=O)NC3=O)[C@H]2[C@H](C)O1 (relative stereo) [Example 17]
2. Cc1noc2c(F)c3c(cc12)CC1(C(=O)NC(=O)NC1=O)[C@H]1[C@H](C)O[C@H](C(F)(F)F)CN31 (relative stereo) [Example 149]
3. C[C@@H]1CN2c3c(cc4c(-c5ccncn5)noc4c3F)CC3(C(=O)NC(=O)NC3=O)[C@H]2[C@H](C)O1 [Example 74(b)]
4. CC(=O)Nc1ccn(-c2noc3c(F)c4c(cc23)CC2(C(=O)NC(=O)NC2=O)[C@H]2[C@H](C)O[C@H](C)CN42)n1 (relative stereo) [Example 28]
5. C[C@@H]1CN2c3c(cc4c(-c5scnc5C#N)noc4c3F)CC3(C(=O)NC(=O)NC3=O)[C@H]2[C@H](C)O1 (relative stereo) [Example 88]
6. C[C@@H]1CN2c3c(nc4c(-c5nccs5)noc4c3Cl)CC3(C(=O)NC(=O)NC3=O)[C@H]2[C@H](C)O1 (relative stereo) [Example 111]
7. C[C@@H]1CN2c3c(cc4c(N5CCOCC5)noc4c3F)CC3(C(=O)NC(=O)NC3=O)[C@H]2[C@H](C)O1 (relative stereo) [Example 22]
8. CC(=O)N1CCN(c2noc3c(F)c4c(cc23)CC2(C(=O)NC(=O)NC2=O)[C@H]2[C@H](C)O[C@H](C)CN42)CC1 (relative stereo) [Example 8]

Reply:
[5.85, 5.36, 6.52, 5.51, 5.92, 6.15, 5.59, 5.08]

Ask: Supply pIC50 value. Item: C[C@@H]1CN2c3c(cc4c([S+](C)[O-])noc4c3F)CC3(C(=O)NC(=O)NC3=O)[C@H]2[C@H](C)O1 (relative stereo) [Example 181]
Reply: 5.48

###

Target: Escherichia coli DNA gyrase A/B tetramer (Escherichia coli (strain K12), UniProt P0AES4+P0AES6)
Assay: DNA gyrase supercoiling activity fluorescence polarisation assay
Format: biochemical
Conditions: 5 nM enzyme, relaxed plasmid, 0.3 mM ATP, ambient temperature; read-out: E. coli DNA gyrase supercoiling IC50
metric.name: pIC50
Answers are plain numbers, as −log10 of the molar value.

compound: C[C@@H]1CN2c3c(cc4c(-n5cnc(C(F)(F)F)c5)noc4c3F)CC3(C(=O)NC(=O)NC3=O)[C@H]2[C@H](C)O1 (relative stereo)
pIC50: 5.18

Below are some compounds; for each one, tell me its pIC50.
1. C[C@@H]1CN2c3c(cc4c(-c5ccccc5)noc4c3F)CC3(C(=O)NC(=O)NC3=O)[C@H]2[C@H](C)O1 (relative stereo)
2. C[C@@H]1CN2c3c(cc4c(C(N)=S)noc4c3F)CC3(C(=O)NC(=O)NC3=O)[C@H]2[C@H](C)O1 (relative stereo) [Intermediate 575]

Reply:
1. 6.40
2. 6.00

###

So I've got a bunch of compounds here, and I need their pIC50 values.
Molecular target: Escherichia coli DNA gyrase A/B tetramer (Escherichia coli (strain K12), UniProt P0AES4+P0AES6)
Experiment: DNA gyrase supercoiling activity fluorescence polarisation assay
Format: biochemical
Conditions: 5 nM enzyme, relaxed plasmid, 0.3 mM ATP, ambient temperature; read-out: E. coli DNA gyrase supercoiling IC50
One number for each entry, as −log10 of the molar value.

compound: Cc1noc2c(F)c3c(cc12)CC1(C(=O)NC(=O)NC1=O)[C@H]1[C@H](C)O[C@H](C)CN31
data.value: 6.52

Below are some compounds; for each one, tell me its pIC50.
1. C[C@@H]1CN2c3c(cc4c(-n5cc(-c6ccncn6)cn5)noc4c3F)CC3(C(=O)NC(=O)NC3=O)[C@H]2[C@H](C)O1 (relative stereo)
2. CCOC(=O)c1noc2c(F)c3c(cc12)CC1(C(=O)NC(=O)NC1=O)[C@H]1[C@H](C)O[C@H](C)CN31 (relative stereo)
3. C[C@@H]1CN2c3c(cc4c(C(=O)NCC(F)F)noc4c3F)CC3(C(=O)NC(=O)NC3=O)[C@H]2[C@H](C)O1 (racemic)
4. C[C@@H]1CN2c3c(cc4c(C(=O)NCC5CCCCC5)noc4c3F)CC3(C(=O)NC(=O)NC3=O)[C@H]2[C@H](C)O1 (relative stereo)
5. C[C@@H]1CN2c3c(cc4c(-c5cn(C)cn5)noc4c3F)CC3(C(=O)NC(=O)NC3=O)[C@H]2[C@H](C)O1 (relative stereo)

Reply:
1: 4.79; 2: 6.00; 3: 5.80; 4: 5.82; 5: 4.77

###

Target: Escherichia coli DNA gyrase A/B tetramer (Escherichia coli (strain K12), UniProt P0AES4+P0AES6)
Assay: DNA gyrase supercoiling activity fluorescence polarisation assay
Assay type: biochemical
metric.name: pIC50
Numbers only, as −log10 of the molar value.

Below are some molecules; for each one, tell me its pIC50.
1. C[C@@H]1CN2c3c(cc4c(CO)noc4c3F)CC3(C(=O)NC(=O)NC3=O)[C@H]2[C@H](C)O1 (relative stereo) [Example 185]
2. C[C@@H]1CN2c3c(cc4c(C(=O)N5CC(C#N)C5)noc4c3F)CC3(C(=O)NC(=O)NC3=O)[C@H]2[C@H](C)O1 (relative stereo) [Example 164]

Reply:
[5.85, 5.92]

###

Target: Escherichia coli DNA gyrase A/B tetramer (Escherichia coli (strain K12), UniProt P0AES4+P0AES6)
Assay: DNA gyrase supercoiling activity fluorescence polarisation assay
Assay type: biochemical
Settings: 5 nM enzyme, relaxed plasmid, 0.3 mM ATP, ambient temperature; read-out: E. coli DNA gyrase supercoiling IC50
Method: DNA Gyrase Supercoiling Activity Fluorescence Polarisation Assay The supercoiling reactions may be quenched by the addition of 10 microliters/well of 40 nM oligodeoxynucleotide probe in 3× triplex-forming buffer consisting of 150 mM NaCl, and 150 mM sodium acetate at pH 3.5. […] After 60 minutes, the fluorescence anisotropy of the BODIPY-FL may be measured in a Tecan Ultra plate reader, using 485 nm excitation and 535 nm emission filters equipped with polarizers. […]
So I've got a bunch of compounds here, and I need their pIC50 values.
Give bare numbers, as −log10 of the molar value.

Field: example entries. Status: answers known.
compound: C[C@@H]1CN2c3c(cc4c(-c5cncc(Cl)n5)noc4c3F)CC3(C(=O)NC(=O)NC3=O)[C@H]2[C@H](C)O1 (relative stereo)
data.value: 6.10
--
compound: C[C@@H]1CN2c3c(cc4c(-c5cnccn5)noc4c3Cl)CC3(C(=O)NC(=O)NC3=O)[C@H]2[C@H](C)O1 (racemic)
data.value: 6.70

Below are some compounds; for each one, tell me its pIC50.
1. C[C@@H]1CN2c3c(cc4c(NCc5nccs5)noc4c3F)CC3(C(=O)NC(=O)NC3=O)[C@H]2[C@H](C)O1 (relative stereo)
2. CCN(C)C(=O)c1noc2c(F)c3c(cc12)CC1(C(=O)NC(=O)NC1=O)[C@H]1[C@H](C)O[C@H](C)CN31 (relative stereo)
3. C[C@@H]1CN2c3c(nc4c(C(=O)NC(C)(C)C)noc4c3Cl)CC3(C(=O)NC(=O)NC3=O)[C@H]2[C@H](C)O1 (relative stereo)

Reply:
5.72
5.12
4.72

Below are some compounds; for each one, tell me its pIC50.
1. C[C@@H]1CN2c3c(cc4c(C(=O)NCc5ccn(C)n5)noc4c3F)CC3(C(=O)NC(=O)NC3=O)[C@H]2[C@H](C)O1 (relative stereo)
2. C[C@@H]1CN2c3c(cc4c(-n5cc(C(=O)O)cn5)noc4c3F)CC3(C(=O)NC(=O)NC3=O)[C@H]2[C@H](C)O1 (relative stereo)
3. C[C@@H]1CN2c3c(cc4c(C(F)(F)F)noc4c3F)CC3(C(=O)NC(=O)NC3=O)[C@H]2[C@H](C)O1 (racemic)
4. C[C@@H]1CN2c3c(cc4c(C5CC5)noc4c3F)CC3(C(=O)NC(=O)NC3=O)[C@H]2[C@H](C)O1 (relative stereo)
5. C[C@@H]1CN2c3c(cc4c(-c5nc(C(=O)N(C)C)cs5)noc4c3F)CC3(C(=O)NC(=O)NC3=O)[C@H]2[C@H](C)O1 (racemic)

Reply:
1: 5.89; 2: 5.12; 3: 5.85; 4: 6.52; 5: 5.30

Ask: Supply pIC50 value. Item: C[C@@H]1CN2c3c(nc4c(-c5nccn5C)noc4c3Cl)CC3(C(=O)NC(=O)NC3=O)[C@H]2[C@H](C)O1 (relative stereo)
Reply: 5.28
